Target: T1, CLDN6 endogenously expressed by human cancer cell lines (ARK2, OVCA429) (human, UniProt P56747 1-220)
T1 construct: Untagged endogenous protein; also called Endogenous CLDN6+
T1 sequence: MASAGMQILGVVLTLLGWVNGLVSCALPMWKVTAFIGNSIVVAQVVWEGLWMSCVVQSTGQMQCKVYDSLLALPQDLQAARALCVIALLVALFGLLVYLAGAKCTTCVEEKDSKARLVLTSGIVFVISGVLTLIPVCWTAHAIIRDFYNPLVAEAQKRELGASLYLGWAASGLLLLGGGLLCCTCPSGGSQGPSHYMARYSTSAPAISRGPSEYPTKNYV
Test: FACS, 1.5 µg Ab, OVCA429 cells
Would you kindly list FACS fluorescence for each of these binders?

What measured FACS fluorescence goes with AB1-4 (antibody, V domains shown, also called Humanized AB 1-4) VH: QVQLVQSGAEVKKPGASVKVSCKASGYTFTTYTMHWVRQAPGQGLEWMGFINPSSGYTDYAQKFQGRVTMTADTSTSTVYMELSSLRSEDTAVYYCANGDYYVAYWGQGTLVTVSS VL: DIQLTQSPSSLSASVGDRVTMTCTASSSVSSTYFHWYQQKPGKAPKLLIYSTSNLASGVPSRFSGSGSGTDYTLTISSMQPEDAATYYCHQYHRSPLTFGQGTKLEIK ? 34600

What measured FACS fluorescence goes with AB18-chim (antibody, V domains shown, 'chim' is the pre-humanized form (parental variable regions); also called pre-humanized (chimeric) form of AB18) VH: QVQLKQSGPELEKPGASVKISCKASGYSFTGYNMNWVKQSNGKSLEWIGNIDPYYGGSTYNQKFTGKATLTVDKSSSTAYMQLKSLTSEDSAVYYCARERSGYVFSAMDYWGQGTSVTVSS VL: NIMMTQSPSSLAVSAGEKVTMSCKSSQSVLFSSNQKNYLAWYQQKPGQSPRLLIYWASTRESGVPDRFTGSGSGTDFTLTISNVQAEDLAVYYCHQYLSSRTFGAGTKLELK ? 25500

What measured FACS fluorescence goes with AB4-4 (antibody, V domains shown, also called Humanized AB 4-4) VH: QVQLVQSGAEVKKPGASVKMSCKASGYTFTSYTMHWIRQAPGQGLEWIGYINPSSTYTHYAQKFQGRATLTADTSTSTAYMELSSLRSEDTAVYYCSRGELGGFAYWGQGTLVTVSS VL: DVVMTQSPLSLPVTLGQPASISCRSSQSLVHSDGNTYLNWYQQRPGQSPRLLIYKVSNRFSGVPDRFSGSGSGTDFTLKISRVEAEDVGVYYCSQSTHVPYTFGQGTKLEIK ? 1200
